- Test system: NCI-H322M lung
- PROTOCOL DESCRIPTION: NCI-60 one-dose screen, 48 h
- PROTOCOL CONDITIONS: 10 µM unless noted
Compounds without any hit were thinned out: in the full panel of roughly 83,000, 20% have a hit. Calls of active or inactive are those of the source. The calls were made as follows: active = growth percent below 10; inactive = the rest.
Lab note: assign the record to one of active, inactive

Recorded test outcome, item COc1ccc(-c2n[nH]c(=O)c3nc(NC(=S)Nc4ccc(Oc5ccccc5)cc4)sc23)cc1
inactive

Recorded test outcome, item N#Cc1cccc(C2C3=C(COC3=O)N(CCO)c3cc4c(cc32)CCC4)c1 (stereo not given)
inactive

Recorded test outcome, item CC(=C(c1ccc(OCCN2CCCCC2)cc1)c1ccc(OCCN2CCCCC2)cc1)c1ccc(Cl)cc1
active

Recorded test outcome, item Cc1ccc(C)c2c(C)c(C(=O)Nc3cccc(-n4cccn4)c3)oc12
inactive

Recorded test outcome, item COc1cccc(/C=N/NC(=O)c2ccccc2N2CCCC2)c1O
inactive

Recorded test outcome, item COc1ccc(C(=O)N2c3ccccc3Sc3ccccc32)c(C(F)(F)F)c1
inactive

Recorded test outcome, item O=C(Nc1ncc(Cc2ccccc2)s1)c1ccc2c(c1)OCCCO2
inactive

Recorded test outcome, item COC(=O)CCC/C=C\C[C@H]1C=CC(=O)/C1=C/C[C@@H](O)C/C=C\CC(F)(F)F
inactive

Recorded test outcome, item O=C(/C=C/c1ccc(Cl)cc1)c1cccc(OCCCOc2cccc(C(=O)/C=C/c3ccc(Cl)cc3)c2)c1
inactive

Recorded test outcome, item N#CC1=C(N)Oc2ccc3ccccc3c2C1c1ccc([N+](=O)[O-])cc1 (stereo not given)
inactive

Recorded test outcome, item O=C1C(Nc2ccccn2)=C(I)C(=O)c2ncccc21
active

Recorded test outcome, item COc1ccc(NC(=O)Nc2ccc(OCCCCCC(=O)NO)cc2)cc1
inactive

Recorded test outcome, item CCc1ccc(CCC(=O)Nc2ncc(Cc3ccccc3)s2)o1
inactive

Recorded test outcome, item O=[N+]([O-])c1cc(NS(=O)(=O)c2ccccc2)ccc1NS(=O)(=O)c1ccccc1
inactive

Recorded test outcome, item CN(C)c1ccc(-c2nc(-c3ccccc3)c(-c3ccccc3)[nH]2)cc1
inactive

Recorded test outcome, item O=C1/C(=C\c2cccc3nccnc23)SC(=S)N1CCc1ccc(O)cc1
inactive

Recorded test outcome, item COc1cc(C(=O)n2nc(N3CCOCC3)c3cc(-n4cccc4)ccc32)cc(OC)c1OC
inactive

Recorded test outcome, item Cc1ccc2nc(NC(=O)CSc3nc(-c4ccccc4)c(C#N)c4nnnn34)sc2c1
inactive

Recorded test outcome, item CCNc1nc(O)c(/C=C2\C=Nc3ncccc32)s1
active

Recorded test outcome, item CN1CCN(C(=S)SCCCCOc2cc(=O)oc3ccccc23)CC1
inactive

Recorded test outcome, item O=C(c1c[nH]c2ccccc12)c1n[nH]c(=S)n1-c1cccc(Br)c1
inactive

Recorded test outcome, item CN(C)c1ccc(/C=C(\C#N)c2cc3ccccc3[nH]2)cc1
inactive

Recorded test outcome, item C=C1C(=O)O[C@H]2[C@H]1CC/C(COC(=O)CSCSCC(=O)OC/C1=C/CC[C@@]3(C)O[C@H]3[C@H]3OC(=O)C(=C)[C@@H]3CC1)=C\CC[C@@]1(C)O[C@@H]21
inactive

Recorded test outcome, item O=C(N/N=C\c1cccc([N+](=O)[O-])c1)N/N=C/c1cccc([N+](=O)[O-])c1
inactive

Recorded test outcome, item CCc1ccc(CCC(=O)Nc2ncc(Cc3cc(Cl)ccc3Cl)s2)o1
inactive

Recorded test outcome, item CCSc1oc(C)nc1[P+](c1ccccc1)(c1ccccc1)c1ccccc1
inactive

Recorded test outcome, item Cc1ccc(C2CC(c3nc(-c4ccc(Cl)cc4)oc3C)=NN2C(=O)c2ccncc2)cc1 (stereo not given)
inactive

Recorded test outcome, item COc1ccccc1N(C(C)=O)C1=C(Cl)C(=O)c2ccccc2C1=O
inactive

Recorded test outcome, item CN1CCN(c2ccc(NC(=O)c3cncnc3Nc3ccc(OCc4cccc(F)c4)c(Cl)c3)cc2)CC1
inactive

Recorded test outcome, item CSC1=Nc2c(c(C)c(-c3ccccc3)n2CCCC(=O)O)C2=NC(=O)C[C@H](C)N12
inactive

Recorded test outcome, item COc1ccc(Cn2cc3c(c2-c2ccccc2)CCc2cnoc2-3)cc1
inactive

Recorded test outcome, item O=C(CCl)NNc1nccc(Nc2ccc(S(=O)(=O)Nc3ccncc3)cc2)n1
inactive

Recorded test outcome, item CN(CCCNC(=O)Cc1ccc2ccc3cccc4ccc1c2c34)CCCNc1cc(-c2ccc3ccccc3c2)nc2ccccc12
active

Recorded test outcome, item C[C@H](C(=O)N(CCc1ccc(Cl)c(Cl)c1)Cc1cncs1)[C@@H]1CC[C@H](C[C@H](C)n2cc(CN3CCC(c4ccc(Cl)cc4)CC3)nn2)O1
inactive

Recorded test outcome, item CCCn1nc(C(=O)N(C)Cc2ccccc2)c2c1CCC(N1CCc3ccccc31)C2 (stereo not given)
inactive

Recorded test outcome, item CN1CCN(CCCOc2cccc3nc(Nc4ccc(F)c(F)c4)ccc23)CC1
active

Recorded test outcome, item COc1ccc(C(=O)/C=C/c2ccc(Cl)cc2)cc1S(=O)(=O)Nc1c(N)nc(SC)[nH]c1=O
inactive

Recorded test outcome, item C=Cc1cnc(Nc2ccc(OC)cc2)nc1NCCCNC(=O)C1CCC1
inactive

Recorded test outcome, item CC(C)CCN(CCC(C)C)CC(O)c1cc2c(c3ccccc13)CCCC2 (stereo not given)
inactive

Recorded test outcome, item O=[N+]([O-])c1ccc(-c2cn3nc(-c4c[nH]c5ccccc45)sc3n2)cc1
inactive
